target: Mu-type opioid receptor (Homo sapiens, UniProt P35372); note: assay procedure not described here
Sequence (P35372 whole entry): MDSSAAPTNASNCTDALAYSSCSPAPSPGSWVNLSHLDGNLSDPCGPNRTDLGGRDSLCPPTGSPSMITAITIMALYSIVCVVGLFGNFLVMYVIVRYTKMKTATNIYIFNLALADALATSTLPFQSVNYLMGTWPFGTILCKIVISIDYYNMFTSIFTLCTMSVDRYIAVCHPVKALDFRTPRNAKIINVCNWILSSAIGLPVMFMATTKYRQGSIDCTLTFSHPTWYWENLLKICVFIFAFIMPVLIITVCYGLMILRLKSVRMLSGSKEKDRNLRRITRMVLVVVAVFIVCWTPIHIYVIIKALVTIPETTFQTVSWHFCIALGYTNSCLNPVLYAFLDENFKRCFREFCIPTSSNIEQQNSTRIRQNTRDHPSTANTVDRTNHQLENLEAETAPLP
Readout name: AC50 (µM)
Write down the numeric answer in µM and omit the unit.

Compound	AC50, µM
CCN(CC)CCCC(C)Nc1c2ccc(Cl)cc2nc2ccc(OC)cc12 (configuration not stated) [QUINACRINE]	5.86
CCCc1nc2c(C)cc(-c3nc4ccccc4n3C)cc2n1Cc1ccc(-c2ccccc2C(=O)O)cc1	2.56
CCC1=C[C@@H]2CN(C1)Cc1c([nH]c3ccccc13)[C@@](C(=O)OC)(c1cc3c(cc1OC)N(C)[C@H]1[C@@](O)(C(=O)OC)[C@H](OC(C)=O)[C@]4(CC)C=CCN5CC[C@]31[C@@H]54)C2 [VINORELBINE]	6.76

Now take the following compound into account.
Provide only the value of recorded AC50 for CCNC(=O)/C=C(C)/C=C/C=C(C)/C=C/c1c(C)cc(OC)c(C)c1C [MOTRETINIDE]
28.4
